test: Microsomal stability in CD1 mouse liver microsomes assessed as half life measured upto 60 mins in presence of NADPH by LC-MS analysis
condition_details: mouse, microsomes, 1 h
Field: t1/2. Provide a value for each of the compounds that follow.
Answers are plain numbers, in min.

- compound: "N=c1c2c(-c3ccccc3)c(-c3ccccc3)n(CC3CC3)c2ncn1CC1CCOCC1"
  observed_value: 16.3

Please go through the list and note t1/2 for each compound.
1. N=c1c2c(-c3ccccc3)c(-c3ccccc3)n(Cc3ccc(OC(F)(F)F)cc3)c2ncn1C1CCOCC1
2. N=c1c2c(-c3ccccc3)c(-c3ccccc3)n(Cc3ccccc3)c2ncn1CCNc1ccncc1
3. COc1ccc(Cn2c(-c3ccccc3)c(-c3ccccc3)c3c(=N)n(CC4CCOCC4)cnc32)cc1
4. N=c1c2c(-c3ccccc3)c(-c3ccccc3)n(Cc3ccccc3)c2ncn1C1CCOCC1
5. COc1ccc(-c2c(-c3ccc(OC)cc3)n(Cc3ccccc3)c3ncn(CCO)c(=N)c23)cc1
6. N=c1c2c(-c3ccccc3)c(-c3ccccc3)n(Cc3ccccc3)c2ncn1CC1CCCO1 (configuration not stated)
7. N=c1c2c(-c3ccccc3)c(-c3ccccc3)n(Cc3ccccc3)c2ncn1CCO

Solution:
[72, 29.9, 13, 29.6, 73.2, 6.5, 25.1]

Please go through the list and note t1/2 for each compound.
1. CN(C)CCn1cnc2c(c(-c3ccccc3)c(-c3ccccc3)n2Cc2ccccc2)c1=N
2. N=c1c2c(-c3ccccc3)c(-c3ccccc3)n(Cc3ccccc3)c2ncn1C1CCC(=O)CC1

Solution:
1: 14.3; 2: 38.2

Please go through the list and note t1/2 for each compound.
1. N#Cc1c(-c2ccccc2)c(-c2ccccc2)n(Cc2ccccc2)c1/N=C/N[C@H]1CC[C@H](O)CC1
2. N=c1c2c(-c3ccccc3)c(-c3ccccc3)n(Cc3ccccc3)c2ncn1CC1CCOC1 (configuration not stated)
3. COc1ccc(-c2c(-c3ccc(OC)cc3)n(Cc3ccccc3)c3ncn(CC4CCOC4)c(=N)c23)cc1 (configuration not stated)
4. N=c1c2c(-c3ccccc3)c(-c3ccccc3)n(CCc3ccccc3)c2ncn1CCO
5. N=c1c2c(-c3ccccc3)cn(Cc3ccccc3)c2ncn1Cc1ccco1
6. N=c1c2c(-c3ccccc3)c(-c3ccccc3)n(Cc3ccccc3)c2ncn1CCCCO

Solution:
11.2
5.3
16.5
32.6
3
7.7

Please go through the list and note t1/2 for each compound.
1. N=c1c2c(-c3ccccc3)c(-c3ccccc3)n(Cc3ccccc3)c2ncn1[C@@H]1CCCC[C@H]1O (relative stereo)
2. CCOC(CCCn1cnc2c(c(-c3ccccc3)c(-c3ccccc3)n2Cc2ccccc2)c1=N)OCC
3. N=c1c2c(-c3ccccc3)c(-c3ccccc3)n(Cc3ccccc3)c2ncn1[C@H]1CC[C@@H](O)CC1
4. N=c1c2c(-c3ccccc3)c(-c3ccccc3)n(CC3CC3)c2ncn1C1CCOCC1
5. Cc1c(C)n(Cc2ccccc2)c2ncn(C3CCOCC3)c(=N)c12

Solution:
1: 28.8; 2: 4.3; 3: 52.3; 4: 68; 5: 26.9

Please go through the list and note t1/2 for each compound.
1. N=c1c2c(-c3ccccc3)c(-c3ccccc3)n(Cc3ccccc3)c2ncn1CCCN1CCN(c2ccccc2)CC1
2. N=c1c2c(-c3ccccc3)c(-c3ccccc3)n(Cc3ccc(S(N)(=O)=O)cc3)c2ncn1CCCO
3. COc1ccc(CCn2cnc3c(c(-c4ccccc4)c(-c4ccccc4)n3Cc3ccccc3)c2=N)cc1OC
4. N=c1c2c(-c3ccccc3)cn(Cc3ccccc3)c2ncn1CCO
5. N=c1c2c(-c3ccccc3)c(-c3ccccc3)n(CCc3ccccc3)c2ncn1CC1CCCO1 (configuration not stated)
6. N#Cc1c(-c2ccccc2)c(-c2ccccc2)n(Cc2ccccc2)c1N

Solution:
[14, 26.7, 12.1, 9.2, 8.4, 13.3]
